molecular target: the molecule itself; assay: SEC + SEC-MALS + other: negative stain electron microscopy; self-assembly of the protomer into the nanoparticle; Superose 6 10/300 at 0.5 ml/min with DAWN HELEOS II and Optilab T-rEX detectors, glycan mass corrected by protein-conjugate analysis; nsEM at 0.1 mg/ml in HBS, uranyl formate
Observation Type: binding result

Q: Tell me binding result reported for P2 60mer (other, glycosylated (engineered glycosylation sites), Plasmodium falciparum circumsporozoite protein (PfCSP), strain 3D7; linker between the peptide and lumazine synthase; C-terminal extension with two added glycosylation sites; Self-assembling lumazine synthase nanoparticle; cloned into pHLsec between the leader and a double stop codon (AgeI/KpnI); source: FreeStyle 293 F cells, transfected, purified (snowdrop lectin agarose, Superose 6 SEC); …) SNTRVLNELNYDNAGGSGNGTGGSMQIYEGKLTAEGLRFGIVASRANHALVDRLVEGAIDAIVRHGGREEDITLVRVCGSWEIPVAAGELARKENISAVIAIGVLCRGATPSFDYIASEVSKGLADLSLELRKPITFGVITADTLEQAIEAAGTCHGNKGWEAALCAIEMANLFKSLRGGSNGTGGSGGSNGT
Result: binds

Q: For P1 24mer (other, glycosylated (engineered glycosylation sites), Plasmodium falciparum circumsporozoite protein (PfCSP), strain 3D7; Self-assembling ferritin nanoparticle; cloned into pHLsec between the leader and a double stop codon (AgeI/KpnI); source: FreeStyle 293 F cells, transfected, purified (snowdrop lectin agarose, Superose 6 SEC); copies: 24) YGSSSNTRVLNELNYLSKDIIKLLNEQVNKEMQSSNLYMSMSSWCYTHSLDGAGLFLFDHAAEEYEHAKKLIIFLNENNVPVNLTSISAPEHNFTGLTQIFQKAYEHEQNISESINNITDHAIKSKDHATFNFLQWYVAEQHEEEVLFKDILDKIELIGNENHGLYLADQYVKGIAKSRKS , write its binding result.
Result: binds

Q: Provide only the value of recorded binding result for J3R3 24mer (other, glycosylated (engineered glycosylation sites), Plasmodium falciparum circumsporozoite protein (PfCSP), strain 3D7; J3R3, junctional peptide with three added NANP repeats; Self-assembling ferritin nanoparticle; cloned into pHLsec between the leader and a double stop codon (AgeI/KpnI); source: FreeStyle 293 F cells, transfected, purified (snowdrop lectin agarose, Superose 6 SEC); copies: 24) KLKQPADGNPDPNANPNVDPNANPNVDPNANPNVDPNANPNANPNANPLSKDIIKLLNEQVNKEMQSSNLYMSMSSWCYTHSLDGAGLFLFDHAAEEYEHAKKLIIFLNENNVPVNLTSISAPEHNFTGLTQIFQKAYEHEQNISESINNITDHAIKSKDHATFNFLQWYVAEQHEEEVLFKDILDKIELIGNENHGLYLADQYVKGIAKSRKS
Result: binds
